As shown below, each of these compounds has a reported Activity value.
Test system: Radical scavenging activity
Assay: Antioxidant activity assessed as DPPH free radical scavenging activity at 50 ug/ml after 20 mins
Format: functional

-- ask Suppose we examine the compound Clc1ccc(C2=NN(c3ccccc3)C(c3noc(-c4ccccc4)n3)C2)cc1 (configuration not stated) ; what Activity value has been reported?
-- reply 40%

-- ask // same read-out, input: COc1cc(-c2nc(C3CC(c4ccc(O)cc4)=NN3c3ccccc3)no2)cc(OC)c1OC (configuration not stated)
-- reply 63%

-- ask Consider next the compound COc1ccc(C2=NN(c3ccccc3)C(c3noc(-c4ccccc4)n3)C2)cc1 (configuration not stated) in the same way.
-- reply 36%

-- ask Quick one: COc1ccc(-c2nc(C3CC(c4ccc(Cl)cc4)=NN3c3ccccc3)no2)cc1OC (configuration not stated)
-- reply 59%

-- ask For COc1ccc(C2=NN(c3ccccc3)C(c3noc(-c4ccc(Cl)cc4)n3)C2)cc1 (configuration not stated) then?
-- reply 52%

-- ask Again, but for Oc1ccc(C2=NN(c3ccccc3)C(c3noc(-c4ccc(O)cc4)n3)C2)cc1 (configuration not stated)
-- reply 47%

-- ask Another compound to check: COc1ccc(C2=NN(c3ccccc3)C(/C(N)=N/O)C2)cc1 (configuration not stated)
-- reply 33%

-- ask N/C(=N\O)C1CC(c2ccc(Cl)cc2)=NN1c1ccccc1 (configuration not stated) , same question.
-- reply 39%

Continuing:
-- ask # get_value(readout='Activity', item= COc1ccccc1-c1nc(C2CC(c3ccccc3)=NN2c2ccccc2)no1 (configuration not stated) )
-- reply 34%

-- ask Next compound up: COc1ccc(C2=NN(c3ccccc3)C(c3noc(-c4ccc(OC)c(OC)c4)n3)C2)cc1 (configuration not stated)
-- reply 48%

-- ask Could you do the same for Oc1ccc(C2=NN(c3ccccc3)C(c3noc(-c4ccc(Cl)cc4)n3)C2)cc1 (configuration not stated) , please?
-- reply 51%

-- ask Next: Clc1ccc(C2=NN(c3ccccc3)C(c3noc(-c4ccc(Cl)cc4)n3)C2)cc1 (configuration not stated)
-- reply 53%
